- systemTested: Human PPARα (Homo sapiens, UniProt Q07869)
- Sequence (Q07869 239-466 limits assumed): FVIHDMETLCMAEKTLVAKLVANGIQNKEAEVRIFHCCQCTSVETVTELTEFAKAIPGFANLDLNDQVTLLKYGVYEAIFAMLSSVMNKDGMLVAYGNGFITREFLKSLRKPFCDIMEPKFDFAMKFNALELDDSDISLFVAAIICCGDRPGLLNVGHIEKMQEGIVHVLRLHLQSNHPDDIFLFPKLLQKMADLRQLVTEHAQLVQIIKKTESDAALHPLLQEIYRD
- protocolSummary: Activation of human PPARα, GAL4 chimeric receptor luciferase reporter assay in transiently transfected 293-T cells
- conditions: activation of PPARα
endpointLabel: EC50 (nM)
Your answer should be a plain number; it is taken to be in nM.

-- ask Report measured EC50; entry is Cc1oc(-c2ccccc2)nc1CCOc1ccc(C[C@@H](C(=O)O)N2CCN(S(=O)(=O)c3ccccc3[N+](=O)[O-])CC2)cc1
-- reply 1050
